Ref: patent US8377967B2

target: human histamine H1 receptor (Homo sapiens)
Sequence (P35367 whole entry): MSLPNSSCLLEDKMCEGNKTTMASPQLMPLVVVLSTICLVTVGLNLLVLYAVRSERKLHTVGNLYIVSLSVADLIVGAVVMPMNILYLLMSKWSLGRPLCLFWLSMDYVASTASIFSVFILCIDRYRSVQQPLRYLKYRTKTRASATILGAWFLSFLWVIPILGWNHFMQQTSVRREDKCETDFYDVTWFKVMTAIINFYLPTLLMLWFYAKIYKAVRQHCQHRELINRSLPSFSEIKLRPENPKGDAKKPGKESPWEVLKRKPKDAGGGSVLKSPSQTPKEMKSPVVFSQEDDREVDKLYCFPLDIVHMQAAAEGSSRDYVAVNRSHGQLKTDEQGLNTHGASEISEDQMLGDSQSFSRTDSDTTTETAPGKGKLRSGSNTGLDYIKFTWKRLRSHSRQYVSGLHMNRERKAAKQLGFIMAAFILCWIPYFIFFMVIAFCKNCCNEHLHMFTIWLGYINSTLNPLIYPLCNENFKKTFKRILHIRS
pIC50: −log10 of the molar value. Counter-ions that a name gives are not always drawn.
Binary classification by pIC50, with 8 as an inclusive lower bound for Met; all other cases are Not met.

Take a look at these entries with their results.
CN1CCC(=C2c3cc(CO)ccc3CCc3sccc32)CC1 = Met
CCOC(=O)Cc1ccc2c(c1)C(=C1CCN(C)CC1)c1sccc1CC2 [Compound 147, hydrochloride] = Met
COC(=O)CSc1ccc2c(c1)C(=C1CCN(C)CC1)c1sccc1CO2.Cl [Compound 171, hydrochloride] = Met
COC(=O)Cc1ccc2c(c1)C(=C1CCN(CCCSC)CC1)c1sccc1CO2.Cl [Compound 198, hydrochloride] = Met

Hi team, for CN1CCC(=C2c3cc(C(=O)O)ccc3CCc3ccsc32)CC1 , is the recorded pIC50 at or above 8?
Not met
